Ref: PubChem BioAssay (NCI)

Below is a list of entries, each paired with its recorded growth value.
test system: NCI-H23 lung; assay: NCI-60 one-dose screen, 48 h (100 = growth as untreated, 0 = no growth, -100 = all killed); conditions: 10 µM unless noted
The panel holds about 83,000 compounds, 20% with a hit somewhere; the sample as a whole holds those more often. Active and inactive are the calls of the source. How the source made its calls: active means growth percent below 10; inactive means the rest.

# count of solved cases: 4
                                   compound  endpoint       measurement
0     Cc1ccc(-c2nc3ccc(Cl)cn3c2NC2CCCCC2)o1    growth  81.3% (inactive)
1  Clc1ccc(Nc2nccc(Nc3ccc4[nH]ncc4c3)n2)cc1    growth  45.7% (inactive)
2  CCN(CC)CCCC(C)Nc1cc(-c2ccc(C(F)(F)F)cc2)c(C#N)c2nc3ccccc3n12 (centres undefined)    growth  18.6% (inactive)
3  Cc1ccc(-c2cc3c(SCC(=O)Nc4cc(C(F)(F)F)ccc4Cl)nccn3n2)cc1    growth  74.2% (inactive)

-- ask State the recorded growth for this entry: CC#CC(=O)N1CCC[C@H]1c1nc(-c2ccc(C(=O)Nc3ccccn3)cc2)c2c(N)nccn12
-- reply 96.4% (inactive)

-- ask State the recorded growth for this entry: CCN1CCN(CCCN(C[C@H]2Cc3ccccc3CN2)[C@H]2CCCc3cccnc32)CC1
-- reply 101% (inactive)

-- ask State the recorded growth for this entry: CC(C)=CCc1cc2c(cc1O)C1=C(C(=O)C3=C(C1=O)S(=O)(=O)CCN3)C(C=C(C)C)O2 (centres undefined)
-- reply -35.9% (active)

-- ask State the recorded growth for this entry: CCN1CCN(c2nc(C)cc(N(CCCNc3ccnc4cc(Cl)ccc34)Cc3ccc4c(c3)OCO4)n2)CC1
-- reply 46% (inactive)

-- ask State the recorded growth for this entry: Cc1cn(-c2cc(NC(=O)c3ccc(C)c(Nc4nccc(-c5cnccn5)n4)c3)cc(C(F)(F)F)c2)cn1
-- reply 73% (inactive)

====

Below is a list of entries, each paired with its recorded growth value.
test system: PC-3 prostate; experiment: NCI-60 one-dose screen, 48 h (100 = growth as untreated, 0 = no growth, -100 = all killed); settings: 10 µM unless noted
About 83,000 compounds went through this panel and 20% of them were active in at least one assay; those are over-represented in the sample as a whole.
Please give a number only; it is taken to be in %.

# count of solved cases: 5
In [3]: df
Out[3]:
                               smiles_input  unit_abbreviation  measurement
0  O=S1(=O)OC(c2cc(Cl)c(O)c(Br)c2)(c2cc(Cl)c(O)c(Br)c2)c2ccccc21                  %         84.3
1  O=C(Nc1cccc([N+](=O)[O-])c1)c1ccc(Cl)c(Cl)c1                  %         60.7
2     Cc1ccc(-c2nc3ccc(Cl)cn3c2NC2CCCCC2)o1                  %         45.4
3         Cc1cc2c3c(cccc3c1)C(=O)c1ccccc1-2                  %         93.6
4      Oc1ccc(C(c2ccc(O)cc2)C(Cl)(Cl)Cl)cc1                  %         75.2

-- ask State the recorded growth for this entry: C[N+](C)(CCOC(c1ccccc1)c1ccccc1)CC(=O)OCc1ccccc1
-- reply 98.3

-- ask State the recorded growth for this entry: NC1(C(=O)N[C@@H](CCO)c2ccc(Cl)cc2)CCN(c2ncnc3[nH]ccc23)CC1
-- reply 49.8

-- ask State the recorded growth for this entry: C/C(=C(/c1ccc(Cl)cc1)c1ccc(OCCN2CCCC2)cc1)c1ccccc1
-- reply 64.5

-- ask State the recorded growth for this entry: CCN1/C(=C/C=C/c2n(-c3ccccc3)c3ccc(-c4nc5ccccc5s4)cc3[n+]2CC)N(c2ccccc2)c2ccc(-c3nc4ccccc4s3)cc21
-- reply 16.2

-- ask State the recorded growth for this entry: COc1ccc(Cc2cc(-c3ccccc3C)n[nH]c2=O)cc1
-- reply 81.7
